Values were extracted from patent US20210388087A1.

# TESTED ON: T1, Human CD3eg linker (human)
# T1 construct: Single-chain construct; also called recombinant human CD3
# T1 chain: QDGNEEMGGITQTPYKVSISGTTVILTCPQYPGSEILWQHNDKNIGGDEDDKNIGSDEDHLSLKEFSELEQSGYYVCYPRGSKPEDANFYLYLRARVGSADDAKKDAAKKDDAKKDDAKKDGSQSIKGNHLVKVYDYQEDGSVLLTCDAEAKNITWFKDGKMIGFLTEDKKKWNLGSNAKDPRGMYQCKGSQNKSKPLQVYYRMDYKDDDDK
# ASSAY NOTES: SPR; fold vs parent H183/L072
Please use fulfilled whenever fold change of affinity is not below 0.5 fold, and not fulfilled whenever it is.

See these solved cases before continuing.
H183/L072 VL P56H (antibody, name in Kabat numbering, V domains shown) VH: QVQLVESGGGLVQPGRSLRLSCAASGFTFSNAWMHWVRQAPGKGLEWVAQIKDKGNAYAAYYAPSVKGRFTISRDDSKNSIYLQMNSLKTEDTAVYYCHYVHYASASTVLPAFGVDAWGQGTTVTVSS VL: DIVMTQSPLSLPVTPGEPASISCQASQELVHMNRNTYLHWYQQKPGQAPRLLIYKVSNRFHGVPDRFSGSGSGTDFTLKISRVEAEDVGVYYCAQGTSVPFTFGQGTKLEIK    fulfilled
H183/L072 VL P56V (antibody, name in Kabat numbering, V domains shown) VH: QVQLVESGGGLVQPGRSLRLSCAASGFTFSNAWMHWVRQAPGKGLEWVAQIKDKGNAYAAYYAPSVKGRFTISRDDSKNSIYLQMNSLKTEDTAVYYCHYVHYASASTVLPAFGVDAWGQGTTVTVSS VL: DIVMTQSPLSLPVTPGEPASISCQASQELVHMNRNTYLHWYQQKPGQAPRLLIYKVSNRFVGVPDRFSGSGSGTDFTLKISRVEAEDVGVYYCAQGTSVPFTFGQGTKLEIK    fulfilled

Kindly determine if fold change of affinity recorded for H183/L072 VL H27dG (antibody, name in Kabat numbering, V domains shown) VH: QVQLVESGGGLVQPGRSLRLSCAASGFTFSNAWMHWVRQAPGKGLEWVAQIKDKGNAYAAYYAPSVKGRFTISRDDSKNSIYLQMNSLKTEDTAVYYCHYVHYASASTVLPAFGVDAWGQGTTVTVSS VL: DIVMTQSPLSLPVTPGEPASISCQASQELVGMNRNTYLHWYQQKPGQAPRLLIYKVSNRFPGVPDRFSGSGSGTDFTLKISRVEAEDVGVYYCAQGTSVPFTFGQGTKLEIK is above or exactly 0.5 fold.
not fulfilled

What would you report for H183/L072 VL N30D (antibody, name in Kabat numbering, V domains shown) VH: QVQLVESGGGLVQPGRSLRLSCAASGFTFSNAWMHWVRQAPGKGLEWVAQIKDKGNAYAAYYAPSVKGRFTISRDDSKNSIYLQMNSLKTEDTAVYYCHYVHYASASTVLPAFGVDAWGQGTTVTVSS VL: DIVMTQSPLSLPVTPGEPASISCQASQELVHMNRDTYLHWYQQKPGQAPRLLIYKVSNRFPGVPDRFSGSGSGTDFTLKISRVEAEDVGVYYCAQGTSVPFTFGQGTKLEIK ?
not fulfilled

Similarly, H183/L072 VL N28S (antibody, name in Kabat numbering, V domains shown) VH: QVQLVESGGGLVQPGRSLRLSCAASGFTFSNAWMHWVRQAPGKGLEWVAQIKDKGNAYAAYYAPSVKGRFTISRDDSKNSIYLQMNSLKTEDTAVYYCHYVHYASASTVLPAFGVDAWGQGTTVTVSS VL: DIVMTQSPLSLPVTPGEPASISCQASQELVHMSRNTYLHWYQQKPGQAPRLLIYKVSNRFPGVPDRFSGSGSGTDFTLKISRVEAEDVGVYYCAQGTSVPFTFGQGTKLEIK ?
not fulfilled

Try the binder H183/L072 VL E27aR (antibody, name in Kabat numbering, V domains shown) VH: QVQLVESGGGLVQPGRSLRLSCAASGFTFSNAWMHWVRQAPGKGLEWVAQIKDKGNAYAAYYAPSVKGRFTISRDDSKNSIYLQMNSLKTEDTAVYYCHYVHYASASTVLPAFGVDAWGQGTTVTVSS VL: DIVMTQSPLSLPVTPGEPASISCQASQRLVHMNRNTYLHWYQQKPGQAPRLLIYKVSNRFPGVPDRFSGSGSGTDFTLKISRVEAEDVGVYYCAQGTSVPFTFGQGTKLEIK
fulfilled

// query: H183/L072 VL R29Q (antibody, name in Kabat numbering, V domains shown) VH: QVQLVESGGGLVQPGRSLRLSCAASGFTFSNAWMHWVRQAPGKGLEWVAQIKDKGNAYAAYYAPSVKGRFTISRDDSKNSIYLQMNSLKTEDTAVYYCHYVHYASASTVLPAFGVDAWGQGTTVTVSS VL: DIVMTQSPLSLPVTPGEPASISCQASQELVHMNQNTYLHWYQQKPGQAPRLLIYKVSNRFPGVPDRFSGSGSGTDFTLKISRVEAEDVGVYYCAQGTSVPFTFGQGTKLEIK
fulfilled

Next binder up: H183/L072 VL V27cR (antibody, name in Kabat numbering, V domains shown) VH: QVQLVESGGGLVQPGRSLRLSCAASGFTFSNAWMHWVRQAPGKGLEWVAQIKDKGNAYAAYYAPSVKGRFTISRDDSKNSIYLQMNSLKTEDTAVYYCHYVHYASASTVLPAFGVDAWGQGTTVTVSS VL: DIVMTQSPLSLPVTPGEPASISCQASQELRHMNRNTYLHWYQQKPGQAPRLLIYKVSNRFPGVPDRFSGSGSGTDFTLKISRVEAEDVGVYYCAQGTSVPFTFGQGTKLEIK
fulfilled
